Listed here are compounds together with their documented IC50.
System: HepG2
measurement.notes: MTT assay, HepG2
Assay type: cell-based
measurement.setup: Homo sapiens, HepG2; MTT, 72 h incubation; read-out: IC50 (cytotoxicity), HepG2
Unit µM implied. Number only.

{"compound": "CC(C)(C)[Si](C)(C)OC1OC(=O)C(Br)=C1Br (centres unmarked)", "study.target": "HepG2", "measure.unit": "µM", "val": 135}

Kindly review the next compound as well.
Problem: What reported IC50 corresponds to CC(C)[Si](OC1OC(=O)C(Br)=C1Br)(C(C)C)C(C)C (centres unmarked) on HepG2?
Result: 15.6

----------
Listed here are compounds together with their documented IC50.
Test system: HT-29
measurement.notes: MTT assay, HT-29
Format: cell-based
measurement.setup: Homo sapiens, HT-29, 72 h, read-out: IC50 (cytotoxicity), HT-29
Unit µM implied. Number only.

Previously resolved entries follow.
{"compound": "CC(C)(C)[Si](OC1OC(=O)C(Br)=C1Br)(c1ccccc1)c1ccccc1 (stereo not shown) [Compound 3c]", "measure.unit": "µM", "val": 3.9}
{"compound": "CC(C)[Si](OC1OC(=O)C(Br)=C1Br)(C(C)C)C(C)C (stereo not shown) [Compound 3b]", "measure.unit": "µM", "val": 7.3}
{"compound": "CC(C)(C)[Si](C)(C)OC1OC(=O)C(Br)=C1Br (stereo not shown) [Compound 3a]", "measure.unit": "µM", "val": 88.7}

Problem: Consider the compound O=C1OC(O)C(Br)=C1Br (stereo not shown) [MBA, 3,4-dibromo-5-hydroxyfuran-2(5H)-one, reference compound] and give its measured IC50.
Result: 97.1

----------
measurement.notes: MTT assay, normal bronchial epithelium cell line BEAS-2B
Assay type: cell-based
measurement.setup: human, BEAS-2B cells (noncancerous bronchial epithelial cells); MTT, 72 h incubation; noncancerous cells; read-out: IC50 (cytotoxicity), BEAS-2B
Listed here are compounds together with their documented IC50 at 72 h.

Previously resolved entries follow.
{"compound": "CC[Si](CC)(CC)OC1OC(=O)C(Br)=C1Br (stereo not shown)", "property.label": "IC50 at 72 h", "val": "8.1 µM"}
{"compound": "CC(C)(C)[Si](C)(C)OC1OC(=O)C(Br)=C1Br (stereo not shown)", "property.label": "IC50 at 72 h", "val": "142 µM"}
{"compound": "CC(C)[Si](OC1OC(=O)C(Br)=C1Br)(C(C)C)C(C)C (stereo not shown)", "property.label": "IC50 at 72 h", "val": "12.5 µM"}

Kindly review the next compound as well.
Problem: Consider the compound CC(C)(C)[Si](OC1OC(=O)C(Br)=C1Br)(c1ccccc1)c1ccccc1 (stereo not shown) and give its measured IC50 at 72 h.
Result: 20.3 µM

----------
Test system: HCT 116 wt
measurement.notes: MTT assay, HCT 116 wt
Assay type: cell-based, human
measurement.setup: human, 72 h
property.label: IC50 (nM)
Unit nM implied. Number only.

Problem: Consider the compound CC(C)(C)[Si](C)(C)OC1OC(=O)C(Br)=C1Br (stereo not shown) and give its measured IC50.
Result: 1300

----------
Listed here are molecules together with their documented pIC50.
Test system: HCT 116 wt
measurement.notes: MTT assay, HCT 116 wt
Format: cell-based, human
measurement.setup: Homo sapiens, HCT-116, 72 h, read-out: IC50 (cytotoxicity), HCT 116 wt, MTT, 72 h incubation
Description: The in vitro antitumor activities of the MBA and its derivatives (Table 2) were assayed against a panel of human cancer cell lines (HCT116, HCT-116 ^−/−p53, HT-29, MCF-7, SJSA-1, U2OS, HepG2 and Hep3B) using the MTT assay. […] 5 × 10^3 cells per well for the MCF-7 cell line and 2.5 × 10^3 cells per well for the other cell lines were seeded in 96-well plates to adhere for 24 h. […] The absorbance was measured at 570 nm wavelength using a multiwall plate reader (BioTek, Winooski, VT, USA). […]
# log scale: pIC50 equals minus log10 of the concentration in mol/L

{"molecule": "CC(C)[Si](OC1OC(=O)C(Br)=C1Br)(C(C)C)C(C)C (centres unmarked) [Compound 3b]", "pIC50": 4.82}
{"molecule": "CC(C)(C)[Si](OC1OC(=O)C(Br)=C1Br)(c1ccccc1)c1ccccc1 (centres unmarked) [Compound 3c]", "pIC50": 5.20}
{"molecule": "CC(C)(C)[Si](C)(C)OC1OC(=O)C(Br)=C1Br (centres unmarked) [Compound 3a]", "pIC50": 5.85}
{"molecule": "CC[Si](CC)(CC)OC1OC(=O)C(Br)=C1Br (centres unmarked) [Compound 3d]", "pIC50": 5.80}

Kindly review the next molecule as well.
Problem: Consider the molecule O=C1OC(O)C(Br)=C1Br (centres unmarked) [MBA, 3,4-dibromo-5-hydroxyfuran-2(5H)-one, reference compound] and give its measured pIC50.
Result: 4.69

----------
System: SJSA-1
measurement.notes: MTT assay, SJSA-1
Type: cell-based
measurement.setup: Homo sapiens, SJSA-1; MTT, 72 h incubation; read-out: IC50 (cytotoxicity), SJSA-1
Protocol: The in vitro antitumor activities of the MBA and its derivatives (Table 2) were assayed against a panel of human cancer cell lines (HCT116, HCT-116 ^−/−p53, HT-29, MCF-7, SJSA-1, U2OS, HepG2 and Hep3B) using the MTT assay. […] 5 × 10^3 cells per well for the MCF-7 cell line and 2.5 × 10^3 cells per well for the other cell lines were seeded in 96-well plates to adhere for 24 h. […] The absorbance was measured at 570 nm wavelength using a multiwall plate reader (BioTek, Winooski, VT, USA). […]
property.label: IC50 (µM)
Unit µM implied. Number only.

Previously resolved entries follow.
{"compound": "CC(C)(C)[Si](OC1OC(=O)C(Br)=C1Br)(c1ccccc1)c1ccccc1 (stereo not drawn)", "study.target": "SJSA-1", "property.label": "IC50", "measure.unit": "µM", "val": 14.9}
{"compound": "CC(C)(C)[Si](C)(C)OC1OC(=O)C(Br)=C1Br (stereo not drawn)", "study.target": "SJSA-1", "property.label": "IC50", "measure.unit": "µM", "val": 196}

Kindly review the next compound as well.
Problem: What reported IC50 corresponds to CC(C)[Si](OC1OC(=O)C(Br)=C1Br)(C(C)C)C(C)C (stereo not drawn) on SJSA-1?
Result: 9.9
